# METHOD: LNP hydrodynamic size, polydispersity index and zeta potential by Zetasizer
# Format: physicochemical
# MEASUREMENT_SETUP: FLuc mRNA-loaded LNP; Table 1
EXPERIMENTAL_ENDPOINT: LNP zeta potential (mV)

Consider the reported LNP zeta potential (mV) for these compounds:
compound=CCCCCCCCC(CCCCCCCC)OC(=O)CCCCCO[C@H]1CN(CCCO)C[C@H]1OCCCCCC(=O)OC(CCCCCCCC)CCCCCCCC unit_of_measure=mV observed_result=10.95
compound="CCCCCCCCCCC(CCCCCCCC)COC(=O)CCCCO[C@H]1CN(CCCCCO)C[C@H]1OCCCCC(=O)OCC(CCCCCCCC)CCCCCCCCCC (some centres unmarked)" unit_of_measure=mV observed_result=9.52

(P) CCCCCCC(CCCC)COC(=O)CCCCO[C@H]1CN(CCCCCCO)C[C@H]1OCCCCC(=O)OCC(CCCC)CCCCCC (some centres unmarked)
(Q) CCCCCCCCC(CCCCCCCC)OC(=O)CCCCO[C@H]1CN(CCO)C[C@H]1OCCCCC(=O)OC(CCCCCCCC)CCCCCCCC
(R) CCCCCCCCC(CCCCCCCC)OC(=O)CCO[C@H]1CN(CCCO)C[C@H]1OCCC(=O)OC(CCCCCCCC)CCCCCCCC
Q: Hey, quick one: sort these by LNP zeta potential (mV), largest value first please. Give your ranking as a list of the labels in the requested order.
Ans: P, Q, R

---

# METHOD: LNP hydrodynamic size, polydispersity index and zeta potential by Zetasizer
# Assay type: physicochemical
# MEASUREMENT_SETUP: z-average diameter, FLuc mRNA-loaded LNP; Table 1
EXPERIMENTAL_ENDPOINT: LNP size (nm)

compound="CCCCCCCCCCC(CCCCCCCC)COC(=O)CCCCO[C@H]1CN(CCCCCO)C[C@H]1OCCCCC(=O)OCC(CCCCCCCC)CCCCCCCCCC (stereo partly shown) [Compound 18]" observed_result=86.61
compound="CCCCCCCCCCC(CCCCCCCC)COC(=O)CCCCO[C@H]1CN(CCCCCCO)C[C@H]1OCCCCC(=O)OCC(CCCCCCCC)CCCCCCCCCC (stereo partly shown) [Compound 19]" observed_result=79.74
compound="CCCCCCCCC(CCCCCCCC)OC(=O)CCCCCO[C@H]1CN(CCCO)C[C@H]1OCCCCCC(=O)OC(CCCCCCCC)CCCCCCCC [Compound 11]" observed_result=80.71
compound="CCCCCCCCC(CCCCCCCC)OC(=O)CCCCCO[C@H]1CN(CCCCCO)C[C@H]1OCCCCCC(=O)OC(CCCCCCCC)CCCCCCCC [Compound 12]" observed_result=78.35
